- System: Rattus norvegicus
- experimentDescription: Antinociceptive activity in sc dosed Sprague-Dawley rat assessed as thermal-stimulus induced tail flick latency relative to morphine
- Assay type: functional
readoutType: fold change (FC)
Numbers only.

Here are 3 molecules together with their reported answers.
1) CN1CC[C@]23c4c5ccc(O)c4O[C@H]2[C@H](NCC(=O)OC(C)(C)C)CC[C@@]3(OCCCc2ccccc2)[C@H]1C5: 66
2) CN1CC[C@]23c4c5ccc(O)c4O[C@H]2[C@@H](NCC(=O)OC(C)(C)C)CC[C@@]3(OCCCc2ccccc2)[C@H]1C5: 104
3) Cl.Cl.O=C(O)CN[C@@H]1CC[C@@]2(OCCCc3ccccc3)[C@H]3Cc4ccc(O)c5c4[C@@]2(CCN3CC2CC2)[C@H]1O5: 41

Below is a list of molecules. For each, state its recorded fold change (FC).
1. CC(C)(C)OC(=O)CN[C@H]1CC[C@@]2(OCCCc3ccccc3)[C@H]3Cc4ccc(O)c5c4[C@@]2(CCN3CC2CC2)[C@H]1O5
2. Cl.Cl.O=C(O)CN[C@H]1CC[C@@]2(OCCCc3ccccc3)[C@H]3Cc4ccc(O)c5c4[C@@]2(CCN3CC2CC2)[C@H]1O5

# output
1: 17; 2: 17
